# System: SARS-CoV-2
# assayMethodText: microbe, parasite or virus in culture
# Format: cell-based, SARS-CoV-2 (USA-WA1/2020)
Listed here are molecules together with their documented Selectivity Index CC50/EC50.
parameterMeasured: Selectivity Index CC50/EC50

| molecule | signQualifier | dataValue |
| --- | --- | --- |
| COc1ccc(C[C@H](N)C(=O)N[C@H]2[C@@H](O)[C@H](n3cnc4c(N(C)C)ncnc43)O[C@@H]2CO)cc1 [Puromycin] | = | 0.728 |
| Cc1cccc(/C=N/Nc2cc(N3CCOCC3)nc(OCCc3ccccn3)n2)c1 [Apilimod] | > | 332.11 |
| NC12CC3CC(CC(C3)C1)C2 [NMT4, amantadine] | > | 2.86 |
| CC12CC3CC(C)(C1)CC(N)(C3)C2 [NMT1, memantine] | = | 2.69 |
| CCC(CC)COC(=O)[C@H](C)N[P@](=O)(OC[C@H]1O[C@@](C#N)(c2ccc3c(N)ncnn23)[C@H](O)[C@@H]1O)Oc1ccccc1 [Remdesivir] | > | 16.94 |

---

# Test system: SARS-CoV-2
# assayMethodText: microbe, parasite or virus in culture
# Type: cell-based, SARS-CoV-2 (USA-WA1/2020)
# studyConditions: Severe acute respiratory syndrome coronavirus 2, HeLa-ACE2, 24 h
pEC50: −log10 of the molar value.
In this section we review reported pEC50 values for a set of molecules.
parameterMeasured: pEC50

| molecule | targetEntity | dataValue |
| --- | --- | --- |
| CCC(CC)COC(=O)[C@H](C)N[P@](=O)(OC[C@H]1O[C@@](C#N)(c2ccc3c(N)ncnn23)[C@H](O)[C@@H]1O)Oc1ccccc1 | SARS-CoV-2 | 6.85 |
| CC12CC3CC(C)(C1)CC(N)(C3)C2 [NMT1, memantine] | SARS-CoV-2 | 4.27 |
| NC12CC3CC(CC(C3)C1)C2 | SARS-CoV-2 | 4.15 |
| COc1ccc(C[C@H](N)C(=O)N[C@H]2[C@@H](O)[C@H](n3cnc4c(N(C)C)ncnc43)O[C@@H]2CO)cc1 | SARS-CoV-2 | 6.21 |
| Cc1cccc(/C=N/Nc2cc(N3CCOCC3)nc(OCCc3ccccn3)n2)c1 | SARS-CoV-2 | 8.14 |

---

Let's look at some compounds and their measured CC50 (host cell cytotoxicity).
# System: HeLa-ACE2 cells
# Type: cell-based
# studyConditions: host cell toxicity, 24 h, read-out: HeLa-ACE2 EC50

| compound | valueUnits | signQualifier | CC50 (host cell cytotoxicity) |
| --- | --- | --- | --- |
| CC12CC3(C)CC(CCN)(C1)CC(CO[N+](=O)[O-])(C2)C3 | µM | = | 10.5 |
| CC12CC3(C)CC(CN)(C1)CC(O[N+](=O)[O-])(C2)C3 | µM | > | 200 |
| NCC1(c2cccc(O[N+](=O)[O-])c2)C2CC3CC(C2)CC1C3 (centres unmarked) | µM | > | 200 |
| CCC(O[N+](=O)[O-])C12CC3(C)CC(C)(CC(CCN)(C3)C1)C2 (centres unmarked) | µM | = | 8.37 |
| CCC12CC3CC(N)(C1)CC(CO[N+](=O)[O-])(C3)C2 (centres unmarked) | µM | = | 122 |
